Data provenance: the NIST ThermoML archive (doi:10.1021/je900757k)

experiment: isobaric coefficient of expansion; settings: 338.15 K; 20000 kPa; Liquid; DSC
Parameter: isobaric coefficient of expansion

| Molecular string | Observed |
| --- | --- |
| ClC(Cl)(Cl)Cl | 0.00115 1/K |
| CCCCCCCCCCCC | 0.000888 1/K |
| CCCCCCCCCCCCC | 0.000853 1/K |

IN: Note down isobaric coefficient of expansion recorded for c1ccccc1
OUT: 0.00114 1/K

IN: Give the reported isobaric coefficient of expansion for this compound. CCCCCCCCCCCCCC
OUT: 0.000835 1/K

IN: Provide only the value of recorded isobaric coefficient of expansion for CCCCCCCCCCCCCCC
OUT: 0.000821 1/K

IN: Supply measured isobaric coefficient of expansion of CCCCCCCCCCC in your reply.
OUT: 0.000915 1/K

* * *

List of isobaric coefficient of expansion values.
assay: isobaric coefficient of expansion; conditions: 328.15 K; 30000 kPa; Liquid; DSC

| Molecular string | isobaric coefficient of expansion |
| --- | --- |
| CCCCCCCCC | 0.000921 1/K |
| CCCCCCCCCCCCCC | 0.000789 1/K |

Consider the record given below.
IN: Give me measured isobaric coefficient of expansion, please, for this molecule: CCCCCCCCCCC
OUT: 0.000857 1/K
